# Tested on: UO-31
# Assay Summary: NCI tumour cell line growth inhibition, 48 h
Active and inactive are the calls of the source. Cut-off read from the data, not from the text of the source: active = GI50 up to about 1.1 µM and inactive = higher.
// one of yes (1) = active, no (0) = inactive, no free text

Previously resolved entries follow.
| Compound | Target | Category |
| --- | --- | --- |
| O=C(C#Cc1ccccc1)NC/C=C/c1ccccc1 | UO-31 | no (0) |
| COC(=O)c1cc(Cl)ccc1NC(=O)c1ccc([N+](=O)[O-])cc1 | UO-31 | no (0) |
| CC(=O)OC1CCC2(C)C(=CCC3C4CCC5(OC6CC(C)CN(C(C)=O)C6C5C)C(C)=C4C(=O)C32)C1 (configuration not stated) | UO-31 | no (0) |
| CC1(C)OCC(C2OC3OC(C)(C)OC3C2N)O1 (configuration not stated) | UO-31 | no (0) |
| CCc1nc(N)nc(N)c1-c1ccc2c(c1)nnn2CCc1ccccc1 | UO-31 | no (0) |

Challenge: Write down the call the test reported for this compound. Item: C#CC1(O)CCC2[C@@H]3CCc4cc(Oc5nc(F)nc(-c6c7ccccc7cn6C)n5)ccc4C3CC[C@@]21C (some centres not stated)
Response given: no (0)

Challenge: Please do the same for c1ccc2c(c1)nnn1c3cnccc3nc21 as well.
Response given: no (0)

Challenge: Next record, please: Cc1cc2ccc(OC(=O)c3ccc(NC(=N)N)cc3)cc2oc1=O
Response given: no (0)

Challenge: Again, but for Cc1ccc(O)c(-c2cc(-c3cccc(Br)c3)c(C#N)c(N)n2)c1
Response given: no (0)

Challenge: Another compound to check: CC1=C(O)C(=O)c2ccccc2C1=O
Response given: no (0)

Challenge: Same for Cc1cccc2c(O)c3c(O)cc(O)cc3nc12
Response given: no (0)

Challenge: Could you do the same for C[C@@H]1CCC2[C@@H](C)[C@@H](OCCO[C@H]3OC4O[C@@]5(C)CCC6[C@H](C)CCC([C@H]3C)[C@@]46OO5)OC3O[C@@]4(C)CCC1[C@]32OO4 (some centres not stated) , please?
Response given: yes (1)

====

# Tested on: HCC 2998
# Assay Summary: NCI tumour cell line growth inhibition, 48 h
Activity calls are given as the source filed them. Cut-off read from the data, not from the text of the source: active = GI50 up to about 1.1 µM and inactive = higher.
Readout Kind: GI50

// solved cases for GI50 follow
| Compound | GI50 |
| --- | --- |
| O=C(O)C1CC=CCC1C(=O)Nc1cccc(O)c1 (centres undefined) | > 100 µM (inactive) |
| O=C(Nc1ccc(Sc2ccc(/N=N/c3c(O)c(S(=O)(=O)O)cc4cc(S(=O)(=O)O)ccc34)cc2)cc1)c1ccc(/N=N/c2c(O)c(S(=O)(=O)O)cc3cc(S(=O)(=O)O)ccc23)cc1 | > 100 µM (inactive) |
| COC(=O)C(I(OS(=O)(=O)c1ccc(C)cc1)c1ccccc1)=P(c1ccccc1)(c1ccccc1)c1ccccc1 | 19.2 µM (inactive) |

Challenge: May I ask what GI50 has been recorded for CC1(C)OCC(C2OC3OC(C)(C)OC3C2N)O1 (centres undefined) ?
Response given: > 100 µM (inactive)

====

# Test system: MCF7
# Assay Summary: NCI tumour cell line growth inhibition, 48 h
The source made the active and inactive calls. No stated cut-off is given here; in the data, active = GI50 up to about 1.1 µM and inactive = higher.
Listed here: items and their measured GI50.

The cases that follow already have their GI50 on record.
| Compound | GI50 |
| --- | --- |
| c1cnc2c(c1)Nc1cnncc1S2 | > 100 µM (inactive) |
| C(=C\c1ccccc1)/Cn1nc(-c2ccccc2)nc1-c1cnccn1 | > 100 µM (inactive) |
| O=C1OCC2OC(=O)c3cc(O)c(O)c(O)c3-c3c(O)c(O)c(O)c4c3C(=O)OC(C2OC(=O)c2cc(O)c(O)c(O)c2-c2c1cc(O)c(O)c2O)C1OC(=O)C2C4=C(O)C(=O)C23Oc2cc(O)c4c(c2[C@H]13)O[C@H](c1ccc(O)c(O)c1)[C@@H](O)C4 (stereo partly drawn) | 23.1 µM (inactive) |
| O=C(Cn1c(C(=O)/C=C/c2ccc(Cl)cc2)nc2ccccc21)c1ccc(Cl)cc1 | 15.2 µM (inactive) |
| COc1ccc(CN2C(=O)C(=O)N(C)C2=O)c2ccccc12 | > 10 µM (inactive) |
| COc1ccc(N2C(=O)C3c4[nH]c5ccc(OC)cc5c4C4CCC(C(C)C)CC4C3C2=O)cc1 (stereo not drawn) | > 100 µM (inactive) |
| O=C(Cc1nc2ccc([N+](=O)[O-])cc2nc1O)C(=O)Nc1cc(Cl)c(Cl)cc1Cl | > 100 µM (inactive) |

Now consider a different compound.
Challenge: Recorded GI50 for O=C(c1ccccc1)c1ccc2[nH]c(-c3c(Cl)c(Cl)c(Cl)c(Cl)c3C(=O)N/N=C\C=C\c3ccccc3)nc2c1 , please?
Response given: 20.7 µM (inactive)

====

# System: LOX IMVI
# Assay Summary: NCI tumour cell line growth inhibition, 48 h
Active and inactive are the calls of the source. Cut-off read from the data, not from the text of the source: active = GI50 up to about 1.1 µM and inactive = higher.
Select the correct class. Options are t for active, f for inactive and nothing else.

Solved entries (count: 8):
| Compound | Target | Category |
| --- | --- | --- |
| C1CSC(Sc2nc(SC3=NCCS3)nc(SC3=NCCS3)n2)=N1 | LOX IMVI | f |
| COc1ccc2nc(NC(=O)C(=O)C(C#N)c3ccc(CC#N)cc3)sc2c1 (stereo unspecified) | LOX IMVI | f |
| CC(=O)c1ccc(NCc2cc(O)ccc2O)cc1 | LOX IMVI | f |
| CC(C)Oc1cccc(N2C(Nc3ccccc3)=Nc3ccncc3S2(=O)=O)c1 | LOX IMVI | f |
| NN/C(=N\S(=O)(=O)c1ccc(-c2ccccn2)s1)Nc1ccc(Cl)cc1 | LOX IMVI | f |
| CC/C(=N/O)C(C)C(=O)CCC(=O)Nc1ccc(Cl)cc1 (stereo unspecified) | LOX IMVI | f |
| CCN(CC)c1nnc(CCCCCCCCc2nnc(N(CC)CC)o2)o1 | LOX IMVI | f |
| CCOc1cc2c(cc1O)/C(=N\OC)C[C@@H]1[C@@H]2CC[C@]2(C)[C@@H](O)CC[C@@H]12 | LOX IMVI | t |

Challenge: Please share the test call associated with C[C@H](CCCOS(C)(=O)=O)[C@H]1CC[C@H]2[C@@H]3CC[C@@H]4C[C@H](OS(C)(=O)=O)CC[C@]4(C)[C@H]3CC[C@]12C .
Response given: f

Challenge: Continue with COc1ccc(/C=N/NC(=O)NCCNCCO)cc1
Response given: f

====

# Test system: SF-268
# Assay Summary: NCI tumour cell line growth inhibition, 48 h
The source made the active and inactive calls. No stated cut-off is given here; in the data, active = GI50 up to about 1.1 µM and inactive = higher.
Entries annotated with measured GI50

Some compounds with known GI50 results, for comparison:
| Compound | Recorded Measurement |
| --- | --- |
| O=C(O)C1CC=CCC1C(=O)Nc1cccc(O)c1 (stereo not given) | > 100 µM (inactive) |
| O=[N+]([O-])c1ccc2sc(/C=N/c3ccc(O)cc3)cc2c1 | 29.5 µM (inactive) |
| CCOC(=O)C(Cc1ccc(OC(=O)c2ccc(OC)cc2)cc1)NC(=O)C(F)(F)F (stereo not given) | 35.6 µM (inactive) |
| O=C(Cc1nc2ccc([N+](=O)[O-])cc2nc1O)C(=O)Nc1cc(Cl)c(Cl)cc1Cl | > 100 µM (inactive) |
| COC(=O)CC(c1cn(S(=O)(=O)c2ccc(C)cc2)c2ccccc12)C1C[C@@H](C(=O)OC)N(C(=O)OC(C)(C)C)C1=O (stereo not given in full) | 53.6 µM (inactive) |

Challenge: What GI50 appears in the records for this compound with SF-268? Cc1cn(CC2=NCC(C)N2)c(=O)[nH]c1=O (stereo not given)
Response given: > 100 µM (inactive)

Challenge: Please answer likewise for Cn1c2cc([N+](=O)[O-])ccc2c(=O)c2c(O)cc3c(c21)C=CC(C)(C)O3
Response given: 35.1 µM (inactive)

Challenge: What do you have for COC(=O)C(Cc1cc(OC)c(OC)c(OC)c1)C(=O)OC ?
Response given: > 320 µM (inactive)

Challenge: What do you get for Cc1ccc(NCCO)cc1 ?
Response given: > 100 µM (inactive)

Challenge: Then this compound: CC1=NN(c2nc(N)nc(C(C)Sc3cc(Cl)c(C)cc3S(N)(=O)=O)n2)C(C)(C)C1 (stereo not given)
Response given: > 10 µM (inactive)

====

# Tested on: HCT-116
# Assay Summary: NCI tumour cell line growth inhibition, 48 h
Active and inactive are the calls of the source. Rule as the data show it: active = GI50 up to about 1.1 µM and inactive = higher.
Answer with one of the outcomes true (1) (active), false (0) (inactive)

Answered cases to consult:
| Compound | Category |
| --- | --- |
| O=C1C=C(C2OC(CO)C(O)C2O)C(=O)N1 (stereo unspecified) | false (0) |
| CC(C)(CN1CCOCC1)C(=O)/C=C/c1ccc(/C=C/C(=O)C(C)(C)CN2CCOCC2)cc1 | true (1) |
| O=C1C(Cl)C(c2ccc(Cl)cc2)N1n1cnc2ccccc2c1=O (stereo unspecified) | false (0) |

Challenge: // param item: N=C(N)NS(=O)(=O)c1ccc(NCc2cccc3c(=O)c4ccc(Cl)cc4oc23)cc1 ; yields the recorded call
Response given: false (0)

Challenge: Same read-out for NC1=NS(=O)(=O)Nc2nc(-c3cccs3)[nH]c21 ?
Response given: false (0)

Challenge: Follow-up item: CC1=C(O)C(=O)c2ccccc2C1=O
Response given: false (0)

// provenance: ChEMBL document CHEMBL1201862
